Biological target: T1, human Chemokine-like receptor 1, CMKLR1 (ProLink (PK) tagged GPCR in PathHunter β-Arrestin cells) (human) (UniProt Q99788)
T1 sequence: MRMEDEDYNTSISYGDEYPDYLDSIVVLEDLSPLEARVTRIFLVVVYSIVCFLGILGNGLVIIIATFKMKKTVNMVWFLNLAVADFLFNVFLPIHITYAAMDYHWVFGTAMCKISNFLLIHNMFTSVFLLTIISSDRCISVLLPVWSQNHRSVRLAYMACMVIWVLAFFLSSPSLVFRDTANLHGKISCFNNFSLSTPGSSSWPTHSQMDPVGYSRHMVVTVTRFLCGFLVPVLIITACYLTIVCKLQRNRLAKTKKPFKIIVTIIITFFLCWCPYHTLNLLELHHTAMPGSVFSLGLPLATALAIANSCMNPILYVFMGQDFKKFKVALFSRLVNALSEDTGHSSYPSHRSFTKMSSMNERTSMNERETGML
Non-standard residues stand in square brackets, D forms with d. Primed or numbered codes have the meaning given here. No end group written: not given here. *: point of attachment. PEG8′ = polyethylene glycol linker with an average of 8 ethylene glycol units; fluorPhe = fluorinated phenylalanine; Palmitoyl = CCCCCCCCCCCCCCCC(=O)*; Tic = O=C(O)[C@@H]1Cc2ccccc2CN1; Aad = N[C@@H](CCCC(=O)O)C(=O)O; Nle = CCCC[C@H](N)C(=O)O
log10 EC50, PathHunter β-Arrestin recruitment assay, agonist format for assorted binders
Hi team, quick reminder: these entries are log10 of EC50, PathHunter β-Arrestin recruitment assay, agonist format (nM).

Worked cases, answers included:
# binder, result_number
data = [
    ("{Palmitoyl-PEG8′}-AAFY[Nle]PSQYA[Tic][dA] [OK-104]", 0.41),
    ("{Palmitoyl-PEG8′}-AGYF[Nle]PTNFA[Tic][dA] [OK-105]", 2.31),
    ("{Palmitoyl-PEG8′}-[dA]G[dY]F[Nle]P[dS]QF[dA][Tic][dA] [OK-102]", 0.36),
    ("{Palmitoyl-PEG8′}-AAYF[Nle]PSQFA[Tic][dA] [OK-103]", 1.63),
    ("{Palmitoyl-PEG8′}-AAFY[Nle]PTQFA[Tic][dA] [OK-106]", 1.51),
]

Quick one: log10 EC50, PathHunter β-Arrestin recruitment assay, agonist format for {Palmitoyl-PEG8′}-[dA]G[dY]F[Nle]P[dS][Aad]F[dA][Tic][dA] [OK-111] ? 1.18

Entry {Palmitoyl-PEG8′}-AGFF[Nle]PSQFA[Tic][dA] [OK-115] has what log10 EC50, PathHunter β-Arrestin recruitment assay, agonist format? 1.09

Given the entry {Palmitoyl-PEG8′}-GG[dY]FLP[dS]QF[dA][Tic]S [OK-101] , report its measured log10 EC50, PathHunter β-Arrestin recruitment assay, agonist format. 0.41

What does the data say about its log10 EC50, PathHunter β-Arrestin recruitment assay, agonist format? Entry: {Palmitoyl-PEG8′}-GGFF[Nle]PSQFA[Tic][dS] [OK-116] 1.81

For the binder shown here, {Palmitoyl-PEG8′}-AAYF[Nle]PSQY[dA]F[dA] [OK-107] , give the reported log10 EC50, PathHunter β-Arrestin recruitment assay, agonist format. 3.23

Please look up its log10 EC50, PathHunter β-Arrestin recruitment assay, agonist format: {Palmitoyl-PEG8′}-[dA]G[dY]F[Nle]P[dS]Q[fluorPhe][dA][Tic][dA] (also: fluorPhe9: fluorine position not given here) [OK-112] 0.15
